target: full-length RORγt in Jurkat cells (Homo sapiens (Human), UniProt P51449); assay: RORγt 5×RORE Assay in Jurkat Cells (Assay 2); details: 5×RORE Nanoluc luciferase reporter
Sequence (P51449 other isoform, or with tags, fused parts or gaps): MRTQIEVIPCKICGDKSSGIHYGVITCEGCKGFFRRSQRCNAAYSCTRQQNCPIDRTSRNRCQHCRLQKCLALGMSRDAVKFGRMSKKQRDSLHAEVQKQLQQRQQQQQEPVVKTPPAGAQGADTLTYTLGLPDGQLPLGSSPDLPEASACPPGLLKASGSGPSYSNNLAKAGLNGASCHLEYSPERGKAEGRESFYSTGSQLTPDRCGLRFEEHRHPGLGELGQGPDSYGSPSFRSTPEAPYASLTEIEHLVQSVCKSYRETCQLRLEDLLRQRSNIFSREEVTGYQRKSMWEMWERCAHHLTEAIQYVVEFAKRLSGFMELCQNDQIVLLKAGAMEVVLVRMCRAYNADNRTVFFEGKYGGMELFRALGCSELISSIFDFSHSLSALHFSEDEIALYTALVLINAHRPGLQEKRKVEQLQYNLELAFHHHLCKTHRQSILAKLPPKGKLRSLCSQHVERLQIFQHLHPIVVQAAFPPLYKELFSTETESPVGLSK
pIC50: −log10 of the molar value.
RECORDED METRIC: pIC50

## Task Identify measured pIC50 corresponding to "CCS(=O)(=O)c1ccc(CNC(=O)c2ccc3c(c2)nc(C(F)(F)F)n3Cc2cccc(C(=O)OC)c2)cc1"
## Result 6.00 to 7.00

## Task Identify measured pIC50 corresponding to "CCS(=O)(=O)c1ccc(CNC(=O)c2ccc3c(c2)nc(C(F)(F)F)n3Cc2cccc3c2OC(F)(F)O3)cc1"
## Result > 7.00

## Task Identify measured pIC50 corresponding to CS(=O)(=O)N1CCC([C@H](CO)NC(=O)c2ccc3c(c2)nc(C(F)(F)F)n3Cc2cccc3c2OC(F)(F)O3)CC1 (mixture of isomers)
## Result > 7.00

## Task Identify measured pIC50 corresponding to "CCS(=O)(=O)c1ccc(CNC(=O)c2ccc3c(c2)nc(C2(F)CC2)n3Cc2cccc3c2OC(F)(F)O3)nc1"
## Result > 7.00

====

target: full-length RORγt in Jurkat cells (Homo sapiens (Human)); assay: RORγt 5×RORE Assay in Jurkat Cells (Assay 2); conditions: 5×RORE Nanoluc luciferase reporter
RECORDED METRIC: IC50

## Task Identify measured IC50 corresponding to "CS(=O)(=O)N1CCC(CNC(=O)c2ccc3c(c2)nc(C(F)(F)F)n3Cc2cccc3c2OC(F)(F)O3)CC1"
## Result < 0.1 µM

## Task Identify measured IC50 corresponding to "CCS(=O)(=O)c1ccc(CNC(=O)c2ccc3c(c2)nc(C2CC2)n3Cc2cccc3c2OCCO3)cc1"
## Result > 1 µM

## Task Identify measured IC50 corresponding to "CCS(=O)(=O)c1ccc([C@H](CC(N)=O)NC(=O)c2ccc3c(c2)nc(C(F)(F)F)n3Cc2cccc3c2OC(F)(F)O3)cc1"
## Result < 0.1 µM

## Task Identify measured IC50 corresponding to "CS(=O)(=O)N1CCC(CNC(=O)c2ccc3c(c2)nc(C2(F)CC2)n3Cc2cccc3c2OC(F)(F)O3)CC1"
## Result < 0.1 µM

====

molecular target: full-length RORγt in Jurkat cells (Homo sapiens (Human)); experiment: RORγt 5×RORE Assay in Jurkat Cells (Assay 2); settings: 5×RORE Nanoluc luciferase reporter
RECORDED METRIC: IC50

## Task Under full-length RORγt in Jurkat cells (Homo sapiens (Human)), report IC50 for "CCS(=O)(=O)c1ccc(CNC(=O)c2ccc3c(c2)nc(C2CCC2)n3Cc2cccc3c2OC(F)(F)O3)nc1"
## Result < 100 nM

## Task Under full-length RORγt in Jurkat cells (Homo sapiens (Human)), report IC50 for "CS(=O)(=O)c1ccc(CNC(=O)c2ccc3c(c2)nc(C2(F)CC2)n3Cc2cccc3c2OC(F)(F)O3)nc1"
## Result < 100 nM

## Task Under full-length RORγt in Jurkat cells (Homo sapiens (Human)), report IC50 for "CCS(=O)(=O)c1ccc(CNC(=O)c2ccc3c(c2)nc(C(F)(F)F)n3Cc2cccc3ocnc23)cc1"
## Result 100 to 1000 nM

## Task Under full-length RORγt in Jurkat cells (Homo sapiens (Human)), report IC50 for "CCS(=O)(=O)c1ccc([C@H](CC(=O)O)NC(=O)c2ccc3c(c2)nc(C(F)(F)F)n3Cc2cccc3c2OC(F)(F)O3)cc1"
## Result > 1000 nM

## Task Under full-length RORγt in Jurkat cells (Homo sapiens (Human)), report IC50 for "CS(=O)(=O)c1ccc(CNC(=O)c2ccc3c(c2)nc(C2(F)CC2)n3Cc2cccc3c2OC(F)(F)O3)cc1"
## Result < 100 nM

## Task Under full-length RORγt in Jurkat cells (Homo sapiens (Human)), report IC50 for CCS(=O)(=O)c1ccc([C@@H](O)C(=O)Nc2ccc3c(c2)nc(C(F)(F)F)n3Cc2cccc3c2OC(F)(F)O3)cc1 (mixture of isomers)
## Result < 100 nM

## Task Under full-length RORγt in Jurkat cells (Homo sapiens (Human)), report IC50 for "CCS(=O)(=O)c1ccc(CNC(=O)c2ccc3c(c2)nc(C2(F)CCC2)n3Cc2cccc3c2OC(F)(F)O3)cc1"
## Result < 100 nM

## Task Under full-length RORγt in Jurkat cells (Homo sapiens (Human)), report IC50 for "CCS(=O)(=O)c1ccc(CNC(=O)c2ccc3c(c2)nc(C2CC2)n3Cc2cccc(OC(F)F)c2)cc1"
## Result < 100 nM

## Task Under full-length RORγt in Jurkat cells (Homo sapiens (Human)), report IC50 for "CCS(=O)(=O)c1ccc(CNC(=O)c2ccc3c(c2)nc(C2CCC2)n3Cc2cccc3c2OC(F)(F)O3)cc1"
## Result < 100 nM

## Task Under full-length RORγt in Jurkat cells (Homo sapiens (Human)), report IC50 for "CCS(=O)(=O)c1ccc(CNC(=O)c2ccc3c(c2)nc(C(F)(F)F)n3Cc2ccnc(OC)c2)cc1"
## Result 100 to 1000 nM

## Task Under full-length RORγt in Jurkat cells (Homo sapiens (Human)), report IC50 for "CCS(=O)(=O)c1ccc(CNC(=O)c2ccc3c(c2)nc(C(F)(F)F)n3Cc2cccc3[nH]ncc23)cc1"
## Result < 100 nM

## Task Under full-length RORγt in Jurkat cells (Homo sapiens (Human)), report IC50 for "CCS(=O)(=O)c1ccc(CC(=O)Nc2ccc3c(c2)nc(C(F)(F)F)n3Cc2cccc3c2OC(F)(F)O3)cc1"
## Result < 100 nM

## Task Under full-length RORγt in Jurkat cells (Homo sapiens (Human)), report IC50 for CCS(=O)(=O)c1ccc([C@H](O)C(=O)Nc2ccc3c(c2)nc(C(F)(F)F)n3Cc2cccc3c2OC(F)(F)O3)cc1 (mixture of isomers)
## Result < 100 nM

## Task Under full-length RORγt in Jurkat cells (Homo sapiens (Human)), report IC50 for "CCc1nc2cc(C(=O)NCc3ccc(S(=O)(=O)CC)cc3)ccc2n1[C@H](C)c1cccc2c1OC(F)(F)O2"
## Result < 100 nM
